FYI, the data here is from patent US4642364A.

Target protein (sequence): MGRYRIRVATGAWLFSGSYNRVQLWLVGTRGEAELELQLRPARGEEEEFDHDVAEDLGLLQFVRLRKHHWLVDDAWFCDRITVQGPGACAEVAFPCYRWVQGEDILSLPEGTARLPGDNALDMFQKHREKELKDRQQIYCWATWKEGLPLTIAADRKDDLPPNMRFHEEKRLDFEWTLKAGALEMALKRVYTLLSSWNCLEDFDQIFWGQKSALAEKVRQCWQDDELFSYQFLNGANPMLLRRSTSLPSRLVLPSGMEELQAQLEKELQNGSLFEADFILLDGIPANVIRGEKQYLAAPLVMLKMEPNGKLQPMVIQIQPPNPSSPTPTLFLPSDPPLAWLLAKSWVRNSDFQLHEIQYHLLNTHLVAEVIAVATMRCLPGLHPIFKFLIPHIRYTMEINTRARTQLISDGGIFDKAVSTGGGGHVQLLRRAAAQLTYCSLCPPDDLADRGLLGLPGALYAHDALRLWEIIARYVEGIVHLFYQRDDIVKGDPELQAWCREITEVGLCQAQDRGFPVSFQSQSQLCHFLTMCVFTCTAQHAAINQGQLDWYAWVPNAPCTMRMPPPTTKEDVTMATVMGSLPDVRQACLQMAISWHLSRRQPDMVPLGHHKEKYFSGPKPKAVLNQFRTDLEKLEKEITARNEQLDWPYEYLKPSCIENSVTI
parameter: IC50

Consider the following illustrative entries.
> print(dat)
                                   molecule  parameter        result
1  CCCCCC#CCC#CCCCCCCCC(=O)O [9,12-Octadecadiynoic Acid, reference compound]       IC50      ≥ 100 µM
2  CCCCC/C=C\C/C=C\CC#CCC#CCCCC(=O)O [Compound 3, (Z,Z)-11,14-eicosadien-5,8-diynoic acid]       IC50  10 to 100 µM
3  CCCCC/C=C\C/C=C\CC#CCC#CCCCC(=O)OC [Compound 4]       IC50  10 to 100 µM
4  CCCCC/C=C\CCCCC#CCC#CCCCC(=O)O [Compound 6, (Z)-14-eicosen-5,8-diynoic acid]       IC50       ~100 µM

Task: Given the entry CCCCCCCC/C=C\CC#CCC#CCCCC(=O)O [Compound 5, (Z,Z)-11-eicosen-5,8-diynoic acid] , report its measured IC50.
Output: 13 µM

----------
Known pIC50 of a selection of compounds
- target_or_test_system: Prostaglandin endoperoxide synthase (Ovis aries)
- Construct: sheep seminal vesicular gland microsomes (SSVM) as the enzyme source
- Sequence (P05979 25-600): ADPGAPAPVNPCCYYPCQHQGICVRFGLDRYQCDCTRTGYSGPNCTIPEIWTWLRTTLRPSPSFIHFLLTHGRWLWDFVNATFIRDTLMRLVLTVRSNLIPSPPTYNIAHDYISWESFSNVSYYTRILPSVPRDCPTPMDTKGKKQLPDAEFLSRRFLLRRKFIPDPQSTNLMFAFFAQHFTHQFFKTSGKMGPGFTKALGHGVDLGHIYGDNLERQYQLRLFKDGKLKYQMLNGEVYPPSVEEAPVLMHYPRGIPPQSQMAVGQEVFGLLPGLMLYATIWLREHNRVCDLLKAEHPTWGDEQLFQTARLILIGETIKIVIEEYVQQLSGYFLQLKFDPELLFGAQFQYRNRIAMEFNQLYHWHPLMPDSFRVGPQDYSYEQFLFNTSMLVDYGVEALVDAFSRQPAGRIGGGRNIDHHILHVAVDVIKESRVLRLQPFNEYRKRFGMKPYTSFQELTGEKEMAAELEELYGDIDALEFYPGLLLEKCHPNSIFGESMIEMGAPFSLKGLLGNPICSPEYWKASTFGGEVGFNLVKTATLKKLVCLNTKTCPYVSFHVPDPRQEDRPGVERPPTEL
- measurement_protocol: Prostaglandin endoperoxide synthase (PES) assay, oxygen uptake with sheep seminal vesicular gland microsomes
- experimental_parameters: 33 μM arachidonic acid, pH 8.5
pIC50: −log10 of the molar value.

Consider the following illustrative entries.
> print(dat)
                                   compound  parameter        result
1  CCCCCC#CCC#CCCCCCCCC(=O)O [9,12-Octadecadiynoic Acid, reference compound]      pIC50  6.00 to 7.00
2  CCCCC/C=C\CCCCC#CCC#CCCCC(=O)O [Compound 6, (Z)-14-eicosen-5,8-diynoic acid]      pIC50        < 4.00
3  CCCCCC#CCC#CCC#CCC#CCCCC(=O)O [5,8,11,14-Eicosatetraynoic Acid, reference compound]      pIC50          5.30

Task: Given the entry CCCCC/C=C\C/C=C\CC#CCC#CCCCC(=O)O [Compound 3, (Z,Z)-11,14-eicosadien-5,8-diynoic acid] , report its measured pIC50.
Output: 4.00 to 5.00

Task: Given the entry CCCCCCCC/C=C\CC#CCC#CCCCC(=O)O [Compound 5, (Z,Z)-11-eicosen-5,8-diynoic acid] , report its measured pIC50.
Output: < 4.00
